assay: chemical genetic growth profiling, strain panel (AID 1159580); details: S. cerevisiae deletion strains, growth OD, locus YOR265W, strain rbl2
About 2,000 (36%) of roughly 5,500 compounds were called active. Roughly 18% stayed inconclusive and do not appear here. Rule as the data show it: active = normalized growth mostly below about 0.91 (no sharp cut-off); inconclusive = no clear call, values can overlap the other calls; inactive = mostly above about 0.92. The other results are listed elsewhere or left out.
Your reply should match one of these outcome classes. active, inactive

Examples from the recorded data:
compound: CC1(C)CC2C1CC[C@]1(C)CCC3C(C(=O)O)CC(=O)O[C@@]32C1 (stereo partly drawn)
classAssignment: inactive

compound: CNNC
classAssignment: inactive

compound: C=C1c2cccc(O)c2C(O)=C2C(=O)[C@]3(O)C(O)=C(C(N)=O)C(=O)[C@@H](N(C)C)[C@@H]3[C@@H](O)[C@H]12
classAssignment: inactive

compound: COC(=O)c1c(OC)cc2c(c1C)Oc1c(Cl)c(OC(C)=O)c(Cl)c(C)c1C(=O)O2
classAssignment: inactive

compound: Cc1cc(=O)[nH]c(=S)[nH]1
classAssignment: inactive

compound: Cc1cn[nH]c1
classAssignment: inactive

Let's switch to this compound now.
[ask] // param item: C[n+]1ccccc1/C=N/O ; yields the recorded call
[reply] inactive
